What IC50 was measured for each of the following?
- Tgt: LTA4 hydrolase (Cavia porcellus, UniProt P19602)
- Construct: Lungs were excised from a Hartley guinea pig; from tissue; host or cells: Hartley guinea pig lung, 100,000×g supernatant, 40-70% ammonium sulfate fraction, dialyzed
- Sequence (P19602 whole entry): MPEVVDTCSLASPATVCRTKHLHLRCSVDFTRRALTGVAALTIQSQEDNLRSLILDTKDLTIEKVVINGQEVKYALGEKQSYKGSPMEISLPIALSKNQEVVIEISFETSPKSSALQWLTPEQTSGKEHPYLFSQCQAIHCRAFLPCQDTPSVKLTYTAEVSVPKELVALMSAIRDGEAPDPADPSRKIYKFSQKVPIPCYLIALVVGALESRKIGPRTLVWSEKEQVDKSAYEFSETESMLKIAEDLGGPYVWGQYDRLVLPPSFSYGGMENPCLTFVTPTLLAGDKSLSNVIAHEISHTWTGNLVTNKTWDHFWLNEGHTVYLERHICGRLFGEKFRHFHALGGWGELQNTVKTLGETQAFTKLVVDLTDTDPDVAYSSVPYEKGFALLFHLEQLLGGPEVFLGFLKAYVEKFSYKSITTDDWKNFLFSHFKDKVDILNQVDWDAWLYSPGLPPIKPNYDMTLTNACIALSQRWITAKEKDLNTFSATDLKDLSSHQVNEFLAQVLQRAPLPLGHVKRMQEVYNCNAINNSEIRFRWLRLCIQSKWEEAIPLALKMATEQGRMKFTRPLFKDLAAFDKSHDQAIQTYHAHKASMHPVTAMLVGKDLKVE
- Assay Summary: LTA4 hydrolase inhibition (LTB4 formed from LTA4, guinea pig lung enzyme preparation)
- Assay type: biochemical
- Condition Summary: Table 2; guinea pig lung enzyme preparation; LTA4 63 μM; 37° C., one minute; pH 7.8; read-out: IC50 (concentration required to inhibit LTA4 hydrolase by 50%)
Answers are plain numbers, in nM.

Reported IC50 of CCCc1ccc(CSC[C@H](NC(=O)[C@H](C)CSC(=O)c2ccccc2)C(=O)O)cc1 : 170

For the 6 compounds below, give their IC50 values.
1. CC(C)c1ccc(CSC[C@H](NC(=O)[C@H](C)CS)C(=O)O)cc1
2. CC(C)c1ccc(CSC[C@H](NC(=O)[C@H](C)CSC(=O)c2ccccc2)C(=O)O)cc1
3. C[C@H](CSC(=O)c1ccccc1)C(=O)N[C@@H](CSCc1ccc(C(C)(C)C)cc1)C(=O)O
4. CC(C)c1ccc(C(C)(C)SC[C@H](NC(=O)[C@H](C)CS)C(=O)O)cc1
5. C[C@H](CSC(=O)c1ccccc1)C(=O)N[C@@H](CSCc1ccc(Br)cc1)C(=O)O
6. CCC(SC[C@H](NC(=O)[C@H](C)CS)C(=O)O)c1ccc(C(C)C)cc1 (stereo partly shown)

Result:
200
120
32
25
310
67
